src = BindingDB's records for doi:10.1021/jm050754u

- studySystem: Bcl-2-like protein 1 (Homo sapiens)
- Sequence (Q07817 whole entry): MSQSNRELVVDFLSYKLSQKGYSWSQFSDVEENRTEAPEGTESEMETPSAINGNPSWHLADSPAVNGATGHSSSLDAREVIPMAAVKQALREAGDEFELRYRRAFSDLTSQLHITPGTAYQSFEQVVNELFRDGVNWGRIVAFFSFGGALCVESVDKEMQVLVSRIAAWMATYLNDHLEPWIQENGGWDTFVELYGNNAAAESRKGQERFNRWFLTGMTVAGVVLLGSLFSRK
- procedureText: Activity towards mouse FL5.12 cell line transfected with Bcl-XL in presence of gelatin
quantityName: EC50 (µM)
// units = µM; emit number, no label

Incoming: Please report the recorded EC50 for COc1cc(CCCN2CCOCC2)ccc1-c1ccc(C(=O)NS(=O)(=O)c2ccc(N[C@H](CCCCN)CSc3ccccc3)c([N+](=O)[O-])c2)cc1 .
Outgoing: 3.05

* * *

- procedureText: Activity towards mouse FL5.12 cell line transfected with Bcl-XL in presence of gelatin
quantityName: EC50 (µM)
Field: numeric (µM). Do not append units.

Incoming: Consider the compound shown here: COc1cc(CCCN2CCOCC2)ccc1-c1ccc(C(=O)NS(=O)(=O)c2ccc(N[C@H](CCN3CCOCC3)CSc3ccccc3)c([N+](=O)[O-])c2)cc1 What is its recorded EC50?
Outgoing: 0.382

Incoming: If you can, please state the reported EC50 value of CN(C)C(=O)C[C@H](CSc1ccccc1)Nc1ccc(S(=O)(=O)NC(=O)c2ccc(N3CCC(C)(C)CC3)cc2)cc1[N+](=O)[O-] .
Outgoing: 2.14

Incoming: What value of measured EC50 is listed for COc1cc(CCCN2CCOCC2)ccc1-c1ccc(C(=O)NS(=O)(=O)c2ccc(N[C@@H](CCN(C)C)CSc3ccccc3)c([N+](=O)[O-])c2)cc1 ?
Outgoing: 32.5

Incoming: Any idea what its EC50 is? The compound is CN(C)CC[C@@H](CSc1ccccc1)Nc1ccc(S(=O)(=O)NC(=O)c2ccc(N3CCC(C)(C)CC3)cc2)cc1[N+](=O)[O-]
Outgoing: 9.5

Incoming: If you can, please state the reported EC50 value of COc1cc(CCCN2CCOCC2)ccc1-c1ccc(C(=O)NS(=O)(=O)c2ccc(N[C@H](CCCCN(C)C)CSc3ccccc3)c([N+](=O)[O-])c2)cc1 .
Outgoing: 1.2

Incoming: If you can, please state the reported EC50 value of COc1cc(CCCN2CCOCC2)ccc1-c1ccc(C(=O)NS(=O)(=O)c2ccc(N[C@H](CCCN(C)C)CSc3ccccc3)c([N+](=O)[O-])c2)cc1 .
Outgoing: 3.01
